Reference source: paper PMC7709957

# System: F. ulcerans ZTP riboswitch (pfl RNA, 75-nt aptamer domain, crystal construct) (RNA, riboswitch) UAUCAGUUAUAUGACUGACGGAACGUGGAAUUAACCACAUGAAGUAUAACGAUGACAAUGCCGACCGUCUGGGCG
# test description: ITC
# measurement context: 150 mM KCl, 10 mM MgCl2; 50 mM Hepes-KOH pH 7.4, 37 °C
outcome measure: Kd (µM)
Please reply with the bare figure in µM and do not write the unit itself.

Completed entries (count: 3):
NC(=O)c1nc[nH]c1N
41
NC(=O)c1ncn(-c2ccccn2)c1N
5.6
NC(=O)c1ncn([C@@H]2O[C@H](CO)[C@@H](O)[C@H]2O)c1N
2.3

May I ask what Kd has been recorded for "NC(=O)c1ncn([C@@H]2O[C@H](COP(=O)(O)O)[C@@H](O)[C@H]2O)c1N" ?
0.32
